tested on: Escherichia coli; assay: Antibacterial activity against Escherichia coli after 24 hrs by two fold dilution method; type: functional
measure: MIC (µg/mL)
State the answer as a number, implicitly in µg/mL.

Per the record, O=[N+]([O-])c1ccc(N2C(O)CC(c3ccccc3)N2C(c2cncs2)N2CCOCC2)c([N+](=O)[O-])c1 (configuration not stated) has MIC of 2

Per the record, O=[N+]([O-])c1ccc(C(N2CCOCC2)N2C(c3ccccc3)CC(O)N2c2ccc([N+](=O)[O-])cc2[N+](=O)[O-])cc1 (configuration not stated) has MIC of 64

Per the record, CC(C)=CCC/C(C)=C\C(N1CCOCC1)N1C(c2ccccc2)CC(O)N1c1ccc([N+](=O)[O-])cc1[N+](=O)[O-] (configuration not stated) has MIC of 64

Per the record, CN(C)c1ccc(C(N2CCOCC2)N2C(c3ccccc3)CC(O)N2c2ccc([N+](=O)[O-])cc2[N+](=O)[O-])cc1 (configuration not stated) has MIC of 8

Per the record, O=[N+]([O-])c1ccc(N2C(O)CC(c3ccccc3)N2C(c2ccccc2)N2CCOCC2)c([N+](=O)[O-])c1 (configuration not stated) has MIC of 8

Per the record, O=[N+]([O-])c1ccc(N2C(O)CC(c3ccccc3)N2C(c2ccco2)N2CCOCC2)c([N+](=O)[O-])c1 (configuration not stated) has MIC of 64

Per the record, O=[N+]([O-])c1ccc(N2C(O)CC(c3ccccc3)N2C(c2ccc(Cl)cc2)N2CCOCC2)c([N+](=O)[O-])c1 (configuration not stated) has MIC of 0.5

Origin of values: ChEMBL document CHEMBL3872243
